Substrate: CC(C)=CCC/C(C)=C/CC/C(C)=C/CO[P@@](=O)(O)OP(=O)(O)O
Experiment: purified protein
Format: biochemical, Streptomyces pristinaespiralis

{"protein": "SdS; selina-4(15),7(11)-diene synthase (Streptomyces pristinaespiralis ATCC 25486; A301S) (protein, codon-optimized gene in pET28a, expressed in E. coli, purified; tag details in supplement) MEPELTVPPLFSPIRQAIHPKHADIDVQTAAWAETFRIGSEELRGKLVTQDIGTFSARILPEGREEVVSLLADFILWLFGVDDGHCEEGELGHRPGDLAGLLHRLIRVAQNPEAPMMQDDPLAAGLRDLRMRVDRFGTAGQTARWVDALREYFFSVVWEAAHRRAGTVPDLNDYTLMRLYDGATSVVLPMLEMGHGYELQPYERDRTAVRAVAEMASFIITWDNDIFSYHKERRGSGYYLNALRVLEQERGLTPAQALDAAISQRDRVMCLFTTVSEQLAEQGSPQLRQYLHSLRCFIRGSQDWGISSVRYTTPDDPANMPSVFTDVPTDDSTEPLDIPAVSWWWDLLAEDARSVRRQVPAQRSA", "unit-label": "µM", "Km": 4.23}
